test system: DeltatarO mutant; experiment: S. aureus survival, RN4220 and DeltatarO strains – OD600, teichoic acid synthesis inhibitors, primary screen (AID 463173); settings: S. aureus RN4220 wild type/DeltatarO growth, OD600, 18 h, stronger effect = lower value, screened at 18.75 µg/mL (by protocol)
The campaign covered roughly 52,000 compounds. About 4,300 (8.3%) were called active. For the sample, actives were picked, then their nearest neighbours and some compounds at random.
endpointName: survival (%)
Answers are plain numbers, in %.

Example results:
CC1CN(C(=O)NCc2ccccc2)c2cc(Cl)ccc2O1 (centres undefined)
49
CCN1CCSc2ccc(C(=O)NCc3cccc(F)c3)cc21
61
COc1ccc(-n2nnc(-c3nsc(NC(=O)c4ccc(C)c(C)c4)n3)c2C)cc1Cl
126
O=C(Nc1cccc(C(=O)OCc2cc(=O)n3nc(C4CC4)sc3n2)c1)c1cccc(Cl)c1
80
CCC1CN(C(=O)NCc2ccccc2)c2cc(C)ccc2O1 (centres undefined)
51
C#CCOc1c(Br)cc(C2C(C(=O)OC)=C(C)NC3=C2C(=O)c2ccccc23)cc1OCC (centres undefined)
62
CCC1CN(C(=O)NCc2cccc(OC)c2)c2ccccc2O1 (centres undefined)
62
O=c1[nH]nc(-c2ccccc2)c2cc3c(=O)[nH]nc(-c4ccccc4)c3cc12
100

Answer for every listed entry: what is its survival? The entries follow.
1. Cc1ccc(-n2nc(C)c3c(C)cc(=O)n(CC(=O)N4CCCc5ccccc54)c32)cc1
2. COc1ccc(NC(=O)C2CCN(C3=NS(=O)(=O)C(c4ccc(C)c(C)c4)=C3C)CC2)c(OC)c1
3. CCOc1ccc(Br)cc1C1C(C(=O)OC)=C(C)NC2=C1C(=O)c1ccccc12 (centres undefined)
4. CCOC(=O)c1ccccc1NC(=O)CN1C(=O)CC(c2ccccc2)Sc2ccccc21 (centres undefined)
5. CCOC(=O)c1cnc2c(Cl)c(Cl)ccc2c1Nc1ccc(N(C)C)cc1

Reply |
1: 80; 2: 91; 3: 48; 4: 92; 5: 80

###

tested on: DeltatarO mutant; test: S. aureus survival, RN4220 and DeltatarO strains – OD600, teichoic acid synthesis inhibitors, primary screen (AID 463173); conditions: S. aureus RN4220 wild type/DeltatarO growth, OD600, 18 h, stronger effect = lower value, screened at 18.75 µg/mL (by protocol)
About 4,300 (8.3%) of roughly 52,000 compounds were called active. This is one part of a sample in which actives are shown more often than they occur.
endpointName: survival

Below: 3 compounds and their reported survival.
Cc1ccc2cccc(NC(=O)c3ccc(-c4cccc([N+](=O)[O-])c4)o3)c2n1
67% (inactive)
COc1ccc(OC)c(CNC(=O)Cn2ncc3c([nH]c4ccc(C)cc43)c2=O)c1
92% (inactive)
COc1ccc(-c2nc3sc(CCNS(=O)(=O)c4c(C)cc(C)cc4C)c(C)n3n2)cc1
-1% (active)

Take each entry in turn and give its survival.
1. Clc1cccc(-n2ncc3c(NCCC4=CCCCC4)ncnc32)c1
2. CCOc1ccc(-c2nonc2NC(=O)c2oc3c(C)c(C)ccc3c2C)cc1OCC
3. CC1C(=O)NN=C1C(=O)N/N=C\c1cccnc1 (stereo unspecified)
4. COc1ccc(C(=O)N2CCC(C(=O)O)CC2)cc1

Reply |
37% (active)
34% (active)
87% (inactive)
97% (inactive)

###

system: DeltatarO mutant; assay: S. aureus survival, RN4220 and DeltatarO strains – OD600, teichoic acid synthesis inhibitors, primary screen (AID 463173); conditions: S. aureus RN4220 wild type/DeltatarO growth, OD600, 18 h, screened at 18.75 µg/mL (by protocol)
Screen size: about 52,000 compounds; about 4,300 (8.3%) were called active. Rule as the data show it: active = survival mostly below about 52% (no sharp cut-off); inactive = mostly above about 56%. This is one part of a sample in which actives are shown more often than they occur.
Choose the fitting class; nothing outside active, inactive is accepted.

These recorded examples may help you get a feel for the data.
O=C(c1ccc2c(=O)n(CCc3ccccc3)c(=O)[nH]c2c1)N1CCN(c2ccc(F)cc2)CC1
inactive
Cc1cc(C)c(NC(=O)CSc2nncn3c2cc2oc(C)cc23)c(C)c1
inactive
Cc1ccc(NC(=O)CSc2nc(-c3ccco3)cc(C(F)(F)F)n2)c(C)c1
active
Cn1c(=O)nc2n(-c3ccc(Br)cc3)c3cccc(Cl)c3cc-2c1=O
inactive
CCOC(=O)c1sc(NC(=O)c2cc(CC)on2)c(C(=O)OCC)c1C
inactive

Ask | Record request — test call for `CCOC(=O)c1cc(-c2ccccc2)n(-c2cccc(C(=O)Nc3ccc(F)c(F)c3)c2)c1C`
Reply | inactive

Ask | Input `COc1cc2c(-c3ccccc3O)nc3c(c(C)nn3-c3ccccc3)c2cc1OC`
Reply | inactive

Ask | Repeat with COc1ccc(C(=O)N2CC(=O)Nc3ccc(F)cc3C2c2ccc(F)cc2)c(OC)c1 (configuration not stated)
Reply | inactive

Ask | Also, COc1ccc(CCN2C(=O)N(c3ccc(F)cc3)C(=O)C2CC(=O)Nc2ccc(OC)cc2)cc1 (configuration not stated) please.
Reply | inactive

Ask | Please do the same for `CC(C)(C)C(=O)Nc1c(C(=O)N2CCN(c3ccc(F)cc3)CC2)oc2ccccc12` as well.
Reply | inactive

Ask | Same thing, different molecule: CC1Cc2cc(S(=O)(=O)CCC(=O)Nc3ccc(OC(F)(F)F)cc3)ccc2N1C(=O)C1CC1 (configuration not stated)
Reply | inactive

Ask | What do you get for `CCc1ccc(S(=O)(=O)NCc2cccn2Cc2cccc(C)c2)cc1` ?
Reply | inactive

Ask | Query `Cc1cccc(CCNC(=O)CCc2c(C)nc3c(c(C)nn3-c3ccccc3)c2C)c1` next
Reply | active

Ask | Please answer likewise for `CCOc1ccccc1NC(=O)c1c(NC(=O)c2cccc(C)c2)sc2c1CCC2`
Reply | inactive

Ask | Another molecule to check: `CCCCCn1c(=O)[nH]c2cc(C(=O)N3CCN(c4cccc(OC)c4)CC3)ccc2c1=O`
Reply | active

Ask | And the next one, `CCOC(=O)N1CCN(C(=O)CN(c2cccc(Cl)c2C)S(=O)(=O)c2ccc(C)cc2)CC1` ?
Reply | inactive

Ask | Another molecule: COc1ccc2c(c1)CC(NC(=O)Nc1ccc(Br)c(C)c1)CO2 (configuration not stated)
Reply | inactive

Ask | Proceed to `COc1ccc(C(=O)CSc2nc(C)cc(C)n2)cc1C`
Reply | inactive

Ask | Here is the next molecule: `CCOC(=O)c1noc2ncn(Cc3cccc(C#N)c3)c(=O)c12`
Reply | inactive

Ask | Can you handle `CC(C)COc1ccc(C(=O)N2CCN(CCc3ccccn3)CC2)cc1` next?
Reply | inactive

###

test system: DeltatarO mutant; assay: S. aureus survival, RN4220 and DeltatarO strains – OD600, teichoic acid synthesis inhibitors, primary screen (AID 463173); settings: S. aureus RN4220 wild type/DeltatarO growth, OD600, 18 h, stronger effect = lower value, screened at 18.75 µg/mL (by protocol)
Hit rate of the full screen: of about 52,000 compounds, about 4,300 (8.3%) were called active. Many of the other results were omitted from the sample, so actives are more common in it than they were.
Classification scheme (survival): Low (below 60%), Medium (60% to below 80%), High (80% or more)

Worked examples, 6 compounds total:
Cc1ccc2nc(Nc3cccc(Cl)c3C)c(-n3nc(C)cc3C)nc2c1
High
CCOC(=O)c1ccccc1NC(=O)N(C(C)C)C1CCN(C(C)=O)CC1
Medium
Cc1ccc(NC(=O)c2ccc(N(Cc3ccccc3)S(C)(=O)=O)cc2)cc1
Medium
COc1c(Cl)cc(C(=O)Nc2cc(-c3nc4ccccc4[nH]3)ccc2C)cc1Cl
Low
COc1ccc(CCNC(=O)CCS(=O)(=O)c2cc3c(cc2Cl)NC(=O)CO3)cc1OC
High
Cc1ccc(C(=O)Nc2ccc(S(=O)(=O)N(Cc3ccccc3)c3ccccc3)cc2)cc1
Medium

For the next question, use this compound.
Ask | Dear colleague, I would appreciate it if you could identify the bin for `Cc1cc(C)cc(Nc2nc3ccccc3nc2-n2nc(C)cc2C)c1` and reply at your convenience.
Reply | Low

###

test system: DeltatarO mutant; experiment: S. aureus survival, RN4220 and DeltatarO strains – OD600, teichoic acid synthesis inhibitors, primary screen (AID 463173); conditions: S. aureus RN4220 wild type/DeltatarO growth, OD600, 18 h, stronger effect = lower value, screened at 18.75 µg/mL (by protocol)
Screen size: about 52,000 compounds; about 4,300 (8.3%) were called active. The full list was thinned out, with actives kept by preference.
The label is fulfilled for survival below 80% and not fulfilled for survival equal to or exceeding 80%.

Would you please look over these solved cases?
Cc1ccc(CNC(=O)CSc2c(C(C)C)cnc3c2c(=O)n(C)c(=O)n3C)cc1
not fulfilled
COc1cc(NS(=O)(=O)c2ccc(-c3cc(C)no3)cc2)cc(OC)c1
not fulfilled
COc1ccc(NC(=O)c2c(NCc3ccc(OC)c(OC)c3OC)sc3c2CCC3)c(OC)c1
not fulfilled
CCOc1ccc(NC(=O)c2cnn3c2NC(C)=C(C(=O)Nc2ccc(Cl)cc2)C3c2ccc(OC)c(OC)c2)cc1 (stereo not given)
fulfilled
Cc1ccc(C2Nc3ccccc3-n3c(-c4ccccc4)c4c(=O)n(C)c(=O)n(C)c4c32)cc1 (stereo not given)
fulfilled

Ask | Please determine if `O=C(NCc1ccc(Cl)cc1)c1cnc(N2CCCCC2)c2ccccc12` is below 80% in terms of survival.
Reply | not fulfilled

Ask | Try `CCc1cnc2c(c1SCC(=O)NCc1ccc(C)cc1)c(=O)n(C)c(=O)n2C` next.
Reply | fulfilled
